For each entry below, report its pIC50 value.
Note: pIC50 values are expressed as the negative base-10 logarithm of concentration in M.

Record O=c1c(O)c(-c2ccc(O)cc2O)oc2cc(O)cc(O)c12 [Morin] ; system D-dopachrome tautomerase (Homo sapiens); pIC50 = 4.56

Record O=C1C=CC(=O)c2c(O)cccc21 [Juglone, 5-hydroxy-1,4-naphthalenedione] ; system D-dopachrome tautomerase (Homo sapiens); pIC50 = 4.83

====

molecular target: D-dopachrome tautomerase (Homo sapiens); test: D-dopachrome tautomerase (DDT) enzyme assay with D-dopachrome substrate; assay type: biochemical; conditions: test compound 100 μM; remaining activity, 100% = inactive
Sequence (P30046 2-118 limits assumed): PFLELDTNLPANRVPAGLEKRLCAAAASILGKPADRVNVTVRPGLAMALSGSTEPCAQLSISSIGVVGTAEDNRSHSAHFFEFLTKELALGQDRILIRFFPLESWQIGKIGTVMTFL
For each entry below, report its D-Dopachrome Tautomerase at 100 μM (% of control) value.

// D-Dopachrome Tautomerase at 100 μM (% of control) value for CCc1ccc(NC(=O)/C=C/C(=O)O)cc1 : 40.5% of control

// D-Dopachrome Tautomerase at 100 μM (% of control) value for CC(C)CC(C(=O)NC1CCCC1)N(C(=O)c1snc(C(N)=O)c1N)c1ccc(F)cc1 (stereo not drawn) : 65.7% of control

// D-Dopachrome Tautomerase at 100 μM (% of control) value for CCOC(=O)c1c(NC(=O)/C=C/C(=O)O)sc2c1CCC(C(C)(C)CC)C2 (stereo not drawn) : 14.9% of control

// D-Dopachrome Tautomerase at 100 μM (% of control) value for Oc1nc2cc(I)c(I)cc2o1 [5,6-diiodobenzo[d]oxazol-2-ol] : 56.1% of control

// D-Dopachrome Tautomerase at 100 μM (% of control) value for CC(C)(C)NC(=O)C(c1ccc(F)cc1)N(C(=O)c1snc(C(N)=O)c1N)c1ccccc1 (stereo not drawn) : 52.3% of control

// D-Dopachrome Tautomerase at 100 μM (% of control) value for NC(=O)c1nsc(C(=O)N(c2ccccc2)C(C(=O)NC2CCCC2)c2cccs2)c1N (stereo not drawn) : 66.8% of control

// D-Dopachrome Tautomerase at 100 μM (% of control) value for CC(C)(C)NC(=O)C(c1c[nH]c2ccccc12)N(C(=O)c1snc(C(N)=O)c1N)c1ccccc1 (stereo not drawn) : 40.9% of control

// D-Dopachrome Tautomerase at 100 μM (% of control) value for CCCC(C(=O)NC(C)(C)C)N(Cc1ccccc1Cl)C(=O)c1snc(C(N)=O)c1N (stereo not drawn) : 64.3% of control

// D-Dopachrome Tautomerase at 100 μM (% of control) value for CNC(=O)c1ccccc1NC(=O)c1c(O)nc2c(c1O)CCCC2 : 65.3% of control

// D-Dopachrome Tautomerase at 100 μM (% of control) value for CC(C)CC(C(=O)NC1CCCC1)N(C(=O)c1snc(C(N)=O)c1N)c1ccccc1 (stereo not drawn) : 69.2% of control

// D-Dopachrome Tautomerase at 100 μM (% of control) value for CC(C)(C)NC(=O)C(c1ccc(F)cc1)N(C(=O)c1snc(C(N)=O)c1N)c1cccc(F)c1 (stereo not drawn) : 48.0% of control

// D-Dopachrome Tautomerase at 100 μM (% of control) value for CCc1ccc(O)cc1O [4-Ethyl Resorcinol, reference compound] : 100% of control

// D-Dopachrome Tautomerase at 100 μM (% of control) value for CC(C)(C)NC(=O)C(c1ccc(F)cc1)N(Cc1ccccc1)C(=O)c1snc(C(N)=O)c1N (stereo not drawn) : 69.9% of control

// D-Dopachrome Tautomerase at 100 μM (% of control) value for CC(C)(C)C1CCc2c(sc(NC(=O)/C=C/C(=O)O)c2C#N)C1 (stereo not drawn) : 8.4% of control

// D-Dopachrome Tautomerase at 100 μM (% of control) value for CC(C)CC(C(=O)NC1CCCC1)N(C(=O)c1snc(C(N)=O)c1N)c1cccc(F)c1 (stereo not drawn) : 64.9% of control
